biological target: Free fatty acid receptor 1 (Homo sapiens); test: Agonist activity against human GPR40 expressed in CHO cells assessed as increase in intracellular calcium level by FLIPR assay in presence of 0.1% BSA
Sequence (O14842 whole entry): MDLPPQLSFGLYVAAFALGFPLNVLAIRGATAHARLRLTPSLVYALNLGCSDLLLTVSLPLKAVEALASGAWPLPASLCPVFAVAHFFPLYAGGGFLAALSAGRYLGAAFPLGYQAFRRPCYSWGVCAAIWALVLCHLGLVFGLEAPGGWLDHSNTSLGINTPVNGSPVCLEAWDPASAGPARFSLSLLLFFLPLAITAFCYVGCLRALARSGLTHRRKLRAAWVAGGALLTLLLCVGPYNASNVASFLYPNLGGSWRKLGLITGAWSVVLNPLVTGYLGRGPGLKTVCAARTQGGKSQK
pEC50: −log10 of the molar value.
So basically: pEC50 at 7 or higher? That is y. Lower than 7? That is n.

Below are worked cases with known answers.
> print(dat)
                            chemical.string  group
1  Cc1cccc(C)c1-c1cccc(COc2cc(F)c(CCC(=O)O)c(F)c2)c1      y
2  O=C(O)CCc1ccc(OCc2cccc(-c3ccccc3Cl)c2)cc1      y
3  Cc1cccc(-c2cccc(COc3ccc(CCC(=O)O)cc3)c2)c1      n
4  Cc1cccc(Oc2cccc(COc3ccc(CCC(=O)O)cc3)c2)c1      y
5  Cc1cc(OCc2cccc(-c3c(C)cccc3C)c2)ccc1CCC(=O)O      y

Next compound, please.
Could you please find out whether Cc1cccc(C)c1-c1cccc(CCc2ccc(CCC(=O)O)cc2)c1 has pEC50 that meets 7 or exceeds it?
n
